Tested target: NAT1 (Homo sapiens, UniProt P18440)
Sequence (P18440 1-290): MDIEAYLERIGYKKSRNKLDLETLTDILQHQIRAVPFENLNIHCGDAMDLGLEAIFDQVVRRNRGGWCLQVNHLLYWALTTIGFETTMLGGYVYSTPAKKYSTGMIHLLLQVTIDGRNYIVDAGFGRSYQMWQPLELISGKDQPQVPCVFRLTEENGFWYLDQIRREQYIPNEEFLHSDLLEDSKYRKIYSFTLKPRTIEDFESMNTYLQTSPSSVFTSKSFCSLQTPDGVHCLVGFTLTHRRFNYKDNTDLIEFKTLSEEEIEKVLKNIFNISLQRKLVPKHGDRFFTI
Run description: Recombinant human NAT1
Type: biochemical
Quantity name: IC50 (nM)

>>> data_value("O=C1c2ccccc2C(=O)c2c1ccc(O)c2O [Analog 3 (Alizarin), 1,2-dihydroxyanthraquinone]")
886

----------
Tested target: recombinant human NAT2 (Homo sapiens, UniProt P11245)
Sequence (P11245 whole entry): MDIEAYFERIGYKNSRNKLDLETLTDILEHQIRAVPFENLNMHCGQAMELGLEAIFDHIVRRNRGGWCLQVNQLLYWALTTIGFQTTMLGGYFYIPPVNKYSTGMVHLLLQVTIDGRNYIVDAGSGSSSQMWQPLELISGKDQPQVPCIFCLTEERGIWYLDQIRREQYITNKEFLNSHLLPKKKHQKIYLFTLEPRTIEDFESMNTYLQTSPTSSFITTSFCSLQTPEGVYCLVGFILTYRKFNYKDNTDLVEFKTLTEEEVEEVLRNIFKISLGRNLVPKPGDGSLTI
Run description: Recombinant human NAT2
Quantity name: IC50

>>> data_value("O=C1c2ccccc2C(=O)c2c1ccc(O)c2O [Analog 3 (Alizarin), 1,2-dihydroxyanthraquinone]")
"98.6 µM"

Just for reference, paper PMC8837702 is where these values come from.
